target: HA-tagged bovine PI4KIIIβ (Bos taurus, UniProt O02810); test: PI4KIIIβ immunoprecipitate kinase assay with [γ-32P]-ATP; format: biochemical; settings: PI4KIIIβ; read-out: IC50 IIIb
Sequence (O02810 whole entry): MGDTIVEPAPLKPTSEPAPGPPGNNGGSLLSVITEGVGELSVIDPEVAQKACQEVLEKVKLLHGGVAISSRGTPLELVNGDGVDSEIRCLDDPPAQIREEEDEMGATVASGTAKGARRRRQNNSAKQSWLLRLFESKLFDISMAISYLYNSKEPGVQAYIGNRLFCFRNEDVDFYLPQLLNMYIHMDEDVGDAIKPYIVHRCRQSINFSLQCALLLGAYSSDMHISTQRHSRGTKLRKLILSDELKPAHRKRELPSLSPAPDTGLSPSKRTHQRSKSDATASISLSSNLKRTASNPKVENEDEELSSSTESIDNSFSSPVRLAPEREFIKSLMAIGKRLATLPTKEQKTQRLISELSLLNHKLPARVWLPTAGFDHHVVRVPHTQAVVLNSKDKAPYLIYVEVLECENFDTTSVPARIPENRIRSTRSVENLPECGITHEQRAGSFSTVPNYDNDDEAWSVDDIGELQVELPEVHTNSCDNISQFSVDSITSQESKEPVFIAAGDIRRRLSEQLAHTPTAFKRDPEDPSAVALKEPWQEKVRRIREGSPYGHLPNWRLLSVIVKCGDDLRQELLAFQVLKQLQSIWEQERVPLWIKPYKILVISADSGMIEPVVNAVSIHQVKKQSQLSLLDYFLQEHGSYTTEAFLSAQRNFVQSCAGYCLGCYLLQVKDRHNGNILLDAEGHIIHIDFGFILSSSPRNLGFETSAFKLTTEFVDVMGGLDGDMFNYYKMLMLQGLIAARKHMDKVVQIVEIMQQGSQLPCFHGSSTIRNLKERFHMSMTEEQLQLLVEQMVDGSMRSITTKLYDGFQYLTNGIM
MEASURED ATTRIBUTE: IC50 (µM)

- COc1ccc(-c2sc(NC(=O)C3CCCC3)nc2C)cc1S(=O)(=O)Nc1ccc(CC#N)cc1: 0.235
- CC(=O)Nc1nc(C)c(-c2ccc(Cl)c(S(=O)(=O)Nc3ccccc3)c2)s1: 0.029
- CC(=O)Nc1nc(C)c(-c2ccc(Br)c(S(=O)(=O)NCCN3CCOCC3)c2)s1: 0.05
- CC(=O)Nc1nc(C)c(-c2ccc(Cl)c(S(N)(=O)=O)c2)s1: 0.141
- CC(=O)Nc1nc(C)c(-c2ccc(Cl)c(S(=O)(=O)NCCN3CCOCC3)c2)s1: 0.107
- COc1ccc(-c2sc(NC(C)=O)nc2C)cc1S(=O)(=O)NCCN1CCOCC1: 0.134
- CC(=O)Nc1nc(C)c(-c2ccc(Br)c(S(=O)(=O)NC(C)C)c2)s1: 0.065
- CC(=O)Nc1nc(C)c(-c2ccc(Cl)c(S(=O)(=O)Nc3ccc(F)cc3)c2)s1: 0.071
- COc1ccc(-c2sc(NC(C)=O)nc2C)cc1S(=O)(=O)Nc1ccc(CC#N)cc1: 0.0352
